These data points were gathered from patent US20230263822A1.

# MEASUREMENT_PROTOCOL: Hematology assays in cynomolgus monkeys (Example 45)
# Assay type: in vivo
# COND: day 64
REPORTED_PROPERTY: neutrophils
Number plus unit, in that order.

Worked examples, 3 substances total:
ISIS 416858: MOE gapmer, nucleobases 1275 to 1318 of SEQ ID NO: 1 (Table 8) (antisense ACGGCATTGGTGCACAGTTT; MOE gapmer, wing and gap sizes not given here)    37%
ISIS 416838: MOE gapmer, nucleobases 1018 to 1042 of SEQ ID NO: 1 (Table 6) (antisense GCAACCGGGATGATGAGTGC; MOE gapmer, wing and gap sizes not given here)    30%
ISIS 416864: MOE gapmer, nucleobases 1275 to 1318 of SEQ ID NO: 1 (Table 8) (antisense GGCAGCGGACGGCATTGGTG; MOE gapmer, wing and gap sizes not given here)    49%

Qu. GET /values?readout=neutrophils&item= ISIS 417002: MOE gapmer, nucleobases 1275 to 1318 of SEQ ID NO: 1 (Table 8) (antisense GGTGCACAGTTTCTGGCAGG; MOE gapmer, wing and gap sizes not given here)
Ans. 55%

Qu. Further, for ISIS 416850: MOE gapmer, nucleobases 1275 to 1318 of SEQ ID NO: 1 (Table 8) (antisense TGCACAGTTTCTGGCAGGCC; MOE gapmer, wing and gap sizes not given here) ?
Ans. 41%
